Origin of values: ChEMBL document CHEMBL1687804

Measured MIC by item
- Test system: Staphylococcus aureus
- experimentalDetails: Antibacterial activity against vancomycin-intermediate Staphylococcus aureus isolate 454 (NRS404) by broth microdilution assay
- Format: functional
observationType: MIC (µg/mL)

CN(C)c1cc(NC(=O)CNC(C)(C)C)c(O)c2c1C[C@H]1C[C@H]3[C@H](N(C)C)C(O)=C(C(N)=O)C(=O)[C@@]3(O)C(O)=C1C2=O :: 0.125
CCCCCCCCCCNCCN[C@@]1(C)C[C@H](O[C@H]2[C@H](Oc3c4cc5cc3Oc3ccc(cc3Cl)[C@@H](O)[C@@H](NC(=O)[C@@H](CC(C)C)NC)C(=O)N[C@@H](CC(N)=O)C(=O)N[C@H]5C(=O)N[C@H]3C(=O)N[C@H](C(=O)N[C@H](C(=O)O)c5cc(O)c(CNCP(=O)(O)O)c(O)c5-c5cc3ccc5O)[C@H](O)c3ccc(c(Cl)c3)O4)O[C@H](CO)[C@@H](O)[C@@H]2O)O[C@@H](C)[C@H]1O :: 1
CCCCCCCCCC(=O)N[C@@H](Cc1c[nH]c2ccccc12)C(=O)N[C@H](CC(N)=O)C(=O)N[C@@H](CC(=O)O)C(=O)N[C@@H]1C(=O)NCC(=O)N[C@@H](CCCN)C(=O)N[C@@H](CC(=O)O)C(=O)N[C@H](C)C(=O)N[C@@H](CC(=O)O)C(=O)NCC(=O)N[C@H](CO)C(=O)N[C@@H]([C@H](C)CC(=O)O)C(=O)N[C@@H](CC(=O)c2ccccc2N)C(=O)O[C@@H]1C :: 1
